Data origin, for the record: the nanobody polyreactivity screen of Harvey et al. (2022)

assay.protocol: yeast display, Sf9 membrane polyspecificity reagent, FACS + sequencing; frameworks hold sequencing errors
reported.property: polyreactivity (PSR sort gate)

>>> measured_value("QVQLVESGGGLVQAGGSLRLSCAASGITFRYYAMGWYRQAPGKERELVAAITRGGRTNYADSVKGRFTISRDNAKNTVYLQMNSLKPEDAAVYYCATGRDSNFGNSYYYWGQGTQVTVSS")
"high polyreactivity"
>>> measured_value("QVQLVESGGGLVQAGGSLRLSCAASGITFYKYVMGWYRKAPGKERELVAAISSVGSTYYADSVKGRFTISRDNAKNTVYLQMNSLKPEDTAVYYCAAKYWKWYHYGFGYWGQGTQVTVSS")
"high polyreactivity"
>>> measured_value("QVQLVESGGGLVQAGGTLRLSCAASGSIFRGNGMGWYRQAPGKERELVAAISRSGGRTYYADSVKGRFTFSRDNAKNTVYLQMNSLKPEDTAVYYCAAVPPYNYRFRVYYWGQGSQVTVSS")
"high polyreactivity"

---

assay.protocol: yeast display, Sf9 membrane polyspecificity reagent, FACS + sequencing; frameworks hold sequencing errors
reported.property: polyreactivity (PSR sort gate)

>>> measured_value("QVQLVESGGGLVQAGGRLRLSCAATGSIFRGYAMGWYRQAPGKERELVAAISYRGGSTYYADSVKGRFTISRDNAKNTVYLQMNSLKPEDTAVDYWAAVYSHYWWFDYWGQGTQVTVSS")
"high polyreactivity"
>>> measured_value("QVQLVESGGGLVQAGGSLRLSCAASGITFYRNAMGWYRQAPGKERELVAAIDVGDGTYYADSVKGRFTISRDNAKNTDYLQMNSLKPEDTAVYYCNKTFLFLEYDSWGQGTQVTVSS")
"low polyreactivity"
>>> measured_value("QFQLVESGGGLDQAGGSLRLSCAATGSTFTSYAMGWYIQAPGKERELVAAITSRGGTYYADSVKGRFTISRDNAKNTVYLQMNSLKPEDTAVYYCAARATYKKYPYVKWYDYWGQGTQVTVSS")
"high polyreactivity"
>>> measured_value("QVQLVESGGGLYQAGGSLRLSCAASGLIFTTNAMGWYRQAPGKEREFVAAISPSGGSTYYADSVKGRFTISRDNAKNTVYLQMNSLKPEDTAVYYCAARYSPVWHKYYYWGQGTQVTVSS")
"high polyreactivity"
>>> measured_value("QVQLVESGGGLVQAGGRLRLSCAASGFTFGDNAMGWYRQAPGKERELVAAITSSGSTNYADSVKGRFTISRDNAKNTVYLQMNSLKPEDTAVYYCNAEDSVDAPVYKDLGSEYDSWGQGTQVTVSS")
"low polyreactivity"
>>> measured_value("QVQLVESAAGLVQAVGSHRLSCAASRLTFGFYAMGSDRQARGKESELVAAIDFSDGSTYYADSVKGRFTISRDNAKKTVYLQMNSLKPEDTAVYYCAADDPGLGYWSLTWYDYWGQGTQVTVSS")
"high polyreactivity"
>>> measured_value("QVQLVESGGGLVQAGGSLRLSCAASGRIFDHYAMGSYRQAPGKERELVAAISGGGDSTYYAYSVKGRFTISRDNAKNTVYLQMNSLKPEDTAVFYCAADFYVYWGNYAQDYYYWGQGTQVTVSS")
"high polyreactivity"
>>> measured_value("QVQLVESGGGLVQAGGSLRLSSAASGSTFQFYAMGWYRQAPGKERELVADITSGDDTNYADSVKGRFTISRDNAKNTVYLQMNSLKPEDTAVYYCAVEYILFYTRVRSYWFDYWGQGTQVTVSS")
"low polyreactivity"

Provide each entry's polyreactivity (PSR sort gate) from the list below.
1. QVQLVESGGGLVQAGGSLRLSCAASGSIFAYYAMGWYRQAPGKERELVAYISRSGGITYYADSVKGRFTLSRDNAKNTVYLQMNSLKPVDTAVDYCAARYSVRPISIYPFDFGYWGQGTQVTVSS
2. QVQLVESGGGLVQAGGSLRLSCAASGLIFPAYAMGWYRQAPGKERELVAAISYSGGRTYYADSVKGRVTISRDNAKNTVYLQMNSLKPEDTAVYYCNTGYWYVSLGSYDYYGEYDYWGQGTQVTVSS
3. QVQLVESGGGLVQAGGSLRLSCAASGIIIDYYAMGWYRQAPGKERELVAAITSGGSTSYADSVKGRFTISRDNAKNTVYLQMNSLKPEDTAVYYCNTEPSGYESGYWGQGTQVTVSS
4. QVQLVASGGGLVQAGGSLRLSCAASGRIFDAYAMGWYRQAPGKERELVAAIDFSAGSTYYADSVKGRFTISRDNAQNTVYLQMNSLKPEDTAVYYCATRLGVLYDCWGQGTQVTVSS
5. QVQLVESGGGLVQAGGSLRLSCAASGRILSYNAMGCYRQAPGKERELVAGISWSGGSTYYADSVKGRFTISRDNAKNTVYLQMNSLKPEDTAVYYCNKLQGLTWYNSPYGYWGQGTQVTVSS
6. QVQLVESGGGLVQAGRSLRLSCAASGFTFAYYAMGWYRQAPGKERELVAAISRGGTSTYYADSVKGRFTISRDNAKNTVYLQMNSLKPEDTAVYYCNAVKVGYSLYDYWGQGTQVTVSS
7. QVQLVESGGGIVQAGGSLRLSCAASGRIFVYNTMGWYRQAPGKEREFVAALSWRGGRTYYADSVKGRFTISRDNAKNTVYLQKNSLKPEDTAVYYCGADLKYYGYDYWGQGTHVTVSS

Output line:
1: low polyreactivity; 2: high polyreactivity; 3: low polyreactivity; 4: low polyreactivity; 5: high polyreactivity; 6: high polyreactivity; 7: high polyreactivity

Provide each entry's polyreactivity (PSR sort gate) from the list below.
1. NVQLVESGGGLVQAGGSLRLSCAASGGIFYRYAMGWYRQAPGKEWELVATISRRGGRTYYADSVKGRFTISRDNEKNTVYLQMNSLKPEDTAVYYCAADEWQSGHCLEDDYWGQGTQVTVSS
2. QVQLVESGGGLVQAGGSLRLSCAASGSIFYYYARGWYRQAPGKERELVAAITSGGRTKYADSVKGRFTISRDNAKNTVNLQMNSLKPEDTAVYYCNARNYGKYRTNDYWGQGTQVTVSS

Output line:
high polyreactivity
high polyreactivity

Provide each entry's polyreactivity (PSR sort gate) from the list below.
1. QVQLVESGGGLVQAGGSLRLSCAASGLTFIPNAMGWYRQAPGKERELVAAISGTGGSTYYADSVKGRFTISRDNAKNTVYLQMNSLKPEDTAVYYCAARRRYKSGYWGQGTQVTVSS
2. QVQLVESGGGLVQAGGSLRLSCAASGNTFYWNAMGWYRRAPGKERELVAAISTTGVSTYYADSVKGRFTISRDKAKNTVYLQMNSLKPEDTAVYFCAAEIIGYHTIYDYWGQGTQVTVSS
3. QVQLVESGGGLVQAGGSLSLSCAASGRTFFKYAMGWYRQAPGKERELVASITGRGGSTYADSVKGRFTISRDNAKNTVYLQMNSLKPEDTAVYYCAKVYQRGAQYYYYKYDYWGQGTQVTVSS

Output line:
1. high polyreactivity
2. low polyreactivity
3. high polyreactivity

Input line: Dear colleague, I am looking for the recorded polyreactivity (PSR sort gate) of the following sequence: QVQLVESGGGLVQAGGSLRLSCAASGSTFSYNAMGWYRPAPGKERELVAAISGSGGTTYYADSVKGRFTISRDNAKNTVYLQMNSLKPEDTAVYYCNAYVRRTRDYDYWGQGTQVTVSS
Output line: high polyreactivity
